Biological target: C-X-C chemokine receptor type 4 (CXCR4), endogenous on SupT1 cells (human (endogenous in SupT1), UniProt P61073 1-352)
Assay: flow cytometry on cells; competition with APC-conjugated anti-human CXCR4 antibody clone 12G5 (ECL-2) on 5 x 10^4 SupT1 cells; compounds serially diluted in cold PBS; 90 min at 4 °C; MFI normalized to full stain (100%) and unstained (0%)
Settings: one partner purified
ENDPOINT: IC50 (nM)
Please give a number only; it is taken to be in nM.

Please fill in: IC50 reported for G protein-coupled receptor 15 ligand (GPR15LG) (ligand, UniProt Q6UWK7 25-81, looked up, also called C10orf99; AP-57) KRRPAKAWSGRRTRLCCHRVPSPNSTNLKGHHVRLCKPCKLEPEPRLWVVPGALPQV = 1300

Data origin: paper PMC12093852
